Biological target: T1, human CD33 extracellular domain (human, UniProt P20138 18-259)
T1 construct: soluble monomeric ECD; also called human CD33 ECD; hCD33
Test: SPR, Fab captured, 37C;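 note: Anti-CD33 Fabs captured on anti-Fab chip, soluble monomeric CD33 or its domains flowed over at several concentrations, double-referenced data fitted 1:1, Kd taken as koff/kon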
Reported koff values are given for each entry in this list.
Express your answer in s⁻¹, writing the number without its unit.

1. ADI-11815 Fab (Fab, V domains shown, Fab fragment; also called Ab7) VH: QVQLVQSGAEVKKPGASVKVSCKASGYTFGTYYMHWVRQAPGQGLEWMGIINPSRGSTVYAQKFQGRVTMTRDTSTSTVYMELSSLRSEDTAVYYCARGAGYDDEDMDVWGKGTTVTVSS VL: DIQMTQSPSSVSASVGDRVTITCRASQGIDSWLAWYQQKPGKAPKLLIYAASSLQSGVPSRFSGSGSGTDFTLTISSLQPEDFATYYCQQAHSYPLTFGGGTKVEIK: 7.91e-05

Input: // query koff value for entry ADI-10177 Fab (Fab, V domains shown, Fab fragment; also called Ab2) VH: EVQLVESGGGLVQPGGSLRLSCAASGFTFSSYWMSWVRQAPGKGLEWVANIKQDGSEKYYVDSVKGRFTISRDNAKNSLYLQMNSLRAEDTAVYYCARPLNAGELDVWGQGTMVTVSS VL: DIQMTQSPSTLSASVGDRVTITCRASQSISSWLAWYQQKPGKAPKLLIYEASSLESGVPSRFSGSGSGTEFTLTISSLQPDDFATYYCQQLESYPLTFGGGTKVEIK
Output: 0.00636
